# Tested on: human AML cell line MV4-11
# Assay: Cytotoxicity assay in human leukemia cell lines (Cell-Titer Glo)
# Protocol Conditions: read-out: MV4-11 viability IC50; 48 hours post-treatment, Cell-Titer Glo
Measurement Label: IC50

Lookup: Return reported IC50; argument: CC(C)[C@H](N)C(=O)N1CCC[C@H]1B(O)O [Val-boroPro, reference compound]
Found: < 3 µM

* * *

# Test System: recombinant human DPPIV (rhDPPIV) (Homo sapiens (Human))
# Sequence (P27487 whole entry): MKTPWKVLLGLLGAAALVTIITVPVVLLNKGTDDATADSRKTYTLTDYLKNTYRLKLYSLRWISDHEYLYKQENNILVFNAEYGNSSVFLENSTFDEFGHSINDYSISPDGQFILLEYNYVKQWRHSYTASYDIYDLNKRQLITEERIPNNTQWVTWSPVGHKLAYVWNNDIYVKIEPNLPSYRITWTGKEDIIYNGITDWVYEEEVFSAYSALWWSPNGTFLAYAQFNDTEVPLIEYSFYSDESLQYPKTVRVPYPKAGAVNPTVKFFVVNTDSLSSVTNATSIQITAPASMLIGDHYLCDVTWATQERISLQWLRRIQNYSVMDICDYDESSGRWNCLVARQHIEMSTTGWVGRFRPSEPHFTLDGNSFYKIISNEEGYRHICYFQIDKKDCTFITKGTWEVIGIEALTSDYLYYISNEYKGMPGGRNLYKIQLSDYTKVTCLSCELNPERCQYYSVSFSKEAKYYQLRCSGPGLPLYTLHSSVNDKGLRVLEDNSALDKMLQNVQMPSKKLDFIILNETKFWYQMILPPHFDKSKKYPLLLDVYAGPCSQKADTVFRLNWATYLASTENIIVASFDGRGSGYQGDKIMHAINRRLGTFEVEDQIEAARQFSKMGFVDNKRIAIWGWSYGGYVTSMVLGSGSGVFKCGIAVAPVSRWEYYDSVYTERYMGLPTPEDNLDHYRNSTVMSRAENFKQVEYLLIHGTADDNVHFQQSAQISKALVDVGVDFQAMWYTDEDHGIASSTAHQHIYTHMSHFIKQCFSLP
# Assay: DPPIV enzymatic activity assay
# Protocol Conditions: Table 3B
Measured IC50, listed per entry for reference.

Example entries begin here.
CC(C)[C@H](NC(=O)c1ccnc2ccc(-c3ccc(Cl)cc3)cc12)C(=O)N1CC(F)(F)C[C@H]1C#N
1 to 10 µM
N#C[C@@H]1CC(F)(F)CN1C(=O)CNC(=O)c1ccnc2ccc(-c3ccc4c(c3)CCN4)cc12
> 10 µM
N#C[C@@H]1CC(F)(F)CN1C(=O)CNC(=O)c1ccnc2ccc(-c3cccc4c3CCNC4=O)cc12
> 10 µM
CN1CCN(Cc2ccc(-c3ccc4nccc(C(=O)NCC(=O)N5CC(F)(F)C[C@H]5C#N)c4c3)cc2)CC1
> 10 µM
N#C[C@@H]1CC(F)(F)CN1C(=O)CNC(=O)c1ccnc2ccc(-c3ccccc3)cc12
> 10 µM
N#C[C@@H]1CC(F)(F)CN1C(=O)CNC(=O)c1ccnc2ccc(-c3ccc4c(c3)CCC(=O)N4)cc12
1 to 10 µM

Lookup: Short answer please: IC50, recombinant human DPPIV (rhDPPIV) (Homo sapiens (Human)), entry CC(C)[C@@H](NC(=O)c1ccnc2ccc(-c3ccc(Cl)cc3)cc12)C(=O)N1CC(F)(F)C[C@H]1C#N
Found: > 10 µM
